Molecular target: T1, human TMEFF1 extracellular domain recombinant protein (plasmid BBP377, S40-V330, C-terminal 8xHis) (human, UniProt Q8IYR6 40-330)
T1 construct: Secreted from CHO cells with a non-native signal peptide (not part of the mature protein); also called hTMEFF1 ECD; hTMEFF1-ECD
T1 sequence: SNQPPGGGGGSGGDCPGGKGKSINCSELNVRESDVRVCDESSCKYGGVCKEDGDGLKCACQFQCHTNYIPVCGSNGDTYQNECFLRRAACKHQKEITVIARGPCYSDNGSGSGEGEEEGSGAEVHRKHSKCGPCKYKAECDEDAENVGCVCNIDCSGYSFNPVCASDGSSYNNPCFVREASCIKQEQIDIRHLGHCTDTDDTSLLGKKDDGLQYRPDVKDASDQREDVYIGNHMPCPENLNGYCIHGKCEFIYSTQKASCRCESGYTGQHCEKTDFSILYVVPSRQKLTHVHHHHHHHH
Test: BLI (Octet Red), antibody on Protein A biosensor, recombinant hTMEFF1 ECD as analyte
Please respond with Condition met when measured Kd is strictly beneath 50 nM, and with Condition not met in all other cases.

Solved entries:
INSERT INTO results (binder, group) VALUES
  ('34B7 (antibody, human IgG1, V domains shown) VH: QVQLVESGGGVVQPGRSLRLSCAASGFTFTSYGMHWVRQAPGKGLEWVAVVWYEGNSKFYIDSVKGRFIISRDNSKNTLYLQMNSLRAEDTAVYYCARAYCGDDCYPFDYWGQGTLVTVSS VL: DIQMTQSPSSLSASVGDRVTITCRASQGISNYLAWYQQKPGKVPKLLIYAASTLQSGVPSRFSGSGSGTDFTLTISSLQPEDVATYYCQKYNSAPWTFGQGTKLEIK', 'Condition met'),
  ('50B4_56B2 (antibody, human IgG1, V domains shown) VH: EVQLLESGGGLVQPGGSLRLSCAASGFTFSSYAMSWVRQAPGKGLEWVSTISGSGDSTYYADSVKGRFTISRDNSKNTLYLQMNSLRVEDTAIYYCAKFGVRGVIITNWFDPWGQGTLVTVSS VL: EIVMTQSPATLSVSPGERATLSCRASQSVSSNLAWYQQKPGQVPRLLIYGASTRATGIPARFSGSGSGTEFTLTISSLQSEDFAVYYCQQYNNWPLTFGGGTKVEIK', 'Condition not met'),
  ('34E1_56A4 (antibody, human IgG1, V domains shown) VH: QVQLVESGGGVVQPGRSLRLSCAASGLTFSRYAMHWVRQAPGKGLEWVAVIWYDGSNKYYADSVKGRFTISRDTSKNTLYLQMNSLRAEDTAVYYCAREGLLWFGGMDVWGQGTTVTVSS VL: DIVLTQSPLSLPVTPGEPASISCRSSQSLLHSNGYNYLHWYLQKPGQSPQLLIYLGSNRASGVPDRFSGSGSGTDFTLKISRVEAEDVGLYYCMQALQTPYTFGQGTKLEIK', 'Condition not met'),
  ('M1F1 (antibody, human IgG1, V domains shown) VH: QVQLQESGPGLVKPSETLSLTCAVSGYSISSGYFWGWIRQPPGKKLEWIGSIYHSGSTYYNPSLKSRVTMSVDTSKNQFSLKLSSVTAADTAVYYCAREGDCSGGICYWYFDLWGRGTLVTVSS VL: EIVMTQSPATLSVSPGERATLSCRASQSVSSNLAWYQQKPGQAPRLLIYGASTRATGIPARFSGSGSGTEVTLTISSLQSEDFAVYYCQQYNKWPLTFGGGTKVEIK', 'Condition met');

Then this binder:
Strictly below 50 nM in Kd? 31B7 (antibody, human IgG1, V domains shown) VH: QVQLVESGGGVVQPGRSLRLSCAASGFTFSSYGMHWVRQAPGKGLEWVAVIWYNGINKYYADSVKGRFTISRDASKNTLYLQMNSLRAEDTAVYYCAREGLLWFGGMDVWGQGTTVTVSS VL: EIVLTQSPLSLPVTPGEPASISCRSSQSLLHSNGYNYLHWYLQKPGQSPQLLIYLGSNRASGVPDRFSGSRSGTDFTLKIIRVEAEDVGVYYCMQALQTPYTFGQGTKLEIK
Condition met

Source listed as patent US20200109194A1.
